Test system: 786-0 renal
Assay: NCI-60 one-dose screen, 48 h (100 = growth as untreated, 0 = no growth, -100 = all killed)
Conditions: 10 µM unless noted
Compounds without any hit were thinned out: in the full panel of roughly 83,000, 20% have a hit.
Please provide measured growth for the entries that follow.
One number for each entry, in %.

Example results:
>  <compound>
O=C(c1ccc(O)cc1)C1[C@H](c2ccccc2Br)[C@@H](c2ccccc2)NC12C(=O)Nc1ccccc12 (stereo partly drawn)

>  <parameter-measured>
growth

>  <value-observed>
28.8

$$$$
>  <compound>
O=C(c1ccc(Cl)cc1)C1[C@H](c2ccccc2Cl)[C@@H](c2ccccc2)NC12C(=O)Nc1ccc(Br)cc12 (stereo partly drawn)

>  <parameter-measured>
growth

>  <value-observed>
-67

$$$$
>  <compound>
N#Cc1ccc(C(=O)NNC(=O)CSc2nc3sc4c(c3c(=O)n2-c2ccc(Cl)cc2)CCCC4)cc1

>  <parameter-measured>
growth

>  <value-observed>
75.5

$$$$
>  <compound>
COc1ccc(N=Nc2c(N)nn3c(-c4ccc5c(c4)C=S=C5)ccnc23)cc1

>  <parameter-measured>
growth

>  <value-observed>
55.7

$$$$
>  <compound>
COc1ccc2c(c1)C(=O)N(C)C2C1c2c(cc3c(c2OC)OCO3)CCN1C (stereo not drawn)

>  <parameter-measured>
growth

>  <value-observed>
65.9

$$$$
>  <compound>
CCCN(CCC)S(=O)(=O)c1ccc(C(=O)O)cc1.CCCN(CCC)S(=O)(=O)c1ccc(C(=O)O)cc1.[Cl][Pt+2][Cl].[NH2-].[NH2-]

>  <parameter-measured>
growth

>  <value-observed>
14

$$$$
>  <compound>
Cc1ccc(-c2cc(C(=O)N=Nc3c(O)[nH]c4ccc(F)cc34)c3ccccc3n2)cc1

>  <parameter-measured>
growth

>  <value-observed>
44

$$$$

QUERY: Dear colleague, please send me the reported growth for "Cc1nc(N)ncc1-c1ccc2ncnc(N3CCc4cc(F)c(Cl)cc43)c2c1" when you can.
RESULT: 39.1

* * *

Assign growth to each entry below.
Test system: A498 renal
Test: NCI-60 one-dose screen, 48 h (100 = growth as untreated, 0 = no growth, -100 = all killed)
Conditions: 10 µM unless noted
This is part of a sample that, as a whole, favours compounds with a hit. Of some 83,000 tested, about 20% had one in any assay.
One number for each entry, in %.

// for each molecule in input: emit growth
1. Cc1ccc(C(=O)Nc2cc(-c3ccccc3)cc(C(F)(F)F)c2)cc1C#Cc1cnc2cccnn12
2. Fc1ccc(N2CC(Cn3c(C(F)(F)F)cc4c(Cl)ncnc43)C2)c(F)c1
3. COc1cccc(C(N)=Nc2ccc(OCCCCCCCCn3cncn3)cc2)c1
4. CCCCCCCCCCCCCCCCCC(=O)Nc1ccc(OC)cc1
5. CC(C)(C)C(=O)c1c2c(c3ccc4c5ccccc5ccc4n13)C(=O)c1ccccc1C2=O

RESULT:
133
130
94.3
105
188

Would you be so kind as to report growth for each listed record?
1. Nc1nnc(-c2cncc(Br)c2)c(-c2c[nH]c3ccc(Cl)cc23)n1
2. Clc1ccc2c(NCCNC34CC5CC(CC(C5)C3)C4)ccnc2c1
3. CC[C@]12C=CCN3CC[C@@]4(c5ccc(OC)cc5N(C)[C@H]4[C@@](O)(C(=O)OC)[C@@H]1OC(=O)CCCC[P+](c1ccc(F)cc1)(c1ccc(F)cc1)c1ccc(F)cc1)[C@@H]32
4. O=C(Nc1ccc(-c2ccc3c(c2)NC(=O)/C3=C\c2ccc[nH]2)cc1)Nc1ccc(Cl)c(Cl)c1

RESULT:
1: 112; 2: -94.2; 3: 99.2; 4: 101

Measured values drawn from PubChem BioAssay (NCI) for this set.
